Origin of values: patent US11647748B2

test system: Arabidopsis thaliana; assay: Arabidopsis root length (root growth inhibition); assay type: in vivo; conditions: root length ratio vs DMSO control, 50 μM compound; lower = shorter root; Table 1
Decide using Arabidopsis (relative to DMSO): a value greater than or equal to 0.08 is Yes, a smaller one is No.

A selection of reference data follows.
Molecule | Discrete label
O=C(O)C1CN(S(=O)(=O)/C=C/c2ccc(Cl)cc2)c2ccccc21 (stereo not drawn) | No
COc1cccc2c1[C@@H](C(=O)O)CN2S(=O)(=O)/C=C/c1cccc(Cl)c1 | No
COc1cccc2c1CC(C(=O)O)N2S(=O)(=O)/C=C/c1ccccc1Cl (stereo not drawn) | Yes
O=C(O)C1Cc2ccccc2CN1S(=O)(=O)/C=C/c1ccccc1 (stereo not drawn) | Yes

Switching to the query record.
In: Entry O=C(O)CC1CN(S(=O)(=O)/C=C/c2ccc(Cl)cc2)c2ccccc21 (stereo not drawn) : is its Arabidopsis (relative to DMSO) no less than 0.08?
Out: No
